Tested on: OVCAR-4 ovarian
Assay: NCI-60 one-dose screen, 48 h (100 = growth as untreated, 0 = no growth, -100 = all killed)
Details: 10 µM
The panel holds about 83,000 compounds, 20% with a hit somewhere; the sample as a whole holds those more often.
property-label: growth (%)
Answers are plain numbers, in %.

Here's what some known entries look like.
O=C1c2ccccc2C(=O)c2c1ccc(C(Br)Br)c2Cl
35.5
CCN(CC)CCN1c2nc3ccccc3cc2Sc2cc3ccccc3nc21
15.8
CC(C)(C)OC(=O)N1CCc2c(sc3ncnc(N/N=C/c4ccccc4Br)c23)C1
72.9
O=C(CSc1nccc(Nc2cccc3ccccc23)n1)c1ccc(Cl)cc1
98.7
CCOC(=O)c1cc(C(=O)c2ccc(F)cc2F)n2ccccc12
97.8
CNC(=O)c1cc(Oc2ccc3c(c2)sc2nc(-c4ccc(NC(=O)Nc5ccc(Cl)c(C(F)(F)F)c5)cc4)cn23)ccn1
80.3
CC(=O)Nc1ccc2c(c1)C(=O)c1cccc(C(=O)O)c1-2
108
COc1ccc(-c2nn(-c3cccc(Cl)c3)cc2-c2c(C#N)c(N)n(N)c(=O)c2C#N)cc1
89.3

Give me growth for each of these compounds, listed below.
1. COc1cc2cc(Oc3ccc(NC(=O)c4ccc(Cl)c(C(F)(F)F)c4)cc3)c(C)nc2cc1OC
2. COc1cc(CNC(=O)C2CSC3(C)c4ccccc4C(=O)N23)cc(OC)c1OC (stereo unspecified)
3. N#Cc1c(-c2ccc(Cl)cc2)n(O)c2ccccc12
4. COc1ccc(Nc2cnc3cc(NS(=O)(=O)c4ccc(C)cc4)ccc3n2)cc1
5. O=C(N/N=C/c1ccc(Cl)cc1)c1ccc(Cc2n[nH]c(=O)c3cccnc23)cc1
6. COc1cccc(N=Nc2cccc(OC)c2)c1
7. S=c1cnc2ccccc2[nH]1
8. CCOC(=O)C1=CSC2=NC3=C(CCC/C3=C\c3cc(OC)c(OC)c(OC)c3)C(c3cc(OC)c(OC)c(OC)c3)N12 (stereo unspecified)

42.4
97
26.5
86.5
106
104
105
72.3

Give me growth for each of these compounds, listed below.
1. COc1ccc(-c2cc(-c3cc(OC)ccc3OC)nc(N)c2C#N)cc1
2. CNC(=O)c1cc(Oc2ccc3c(c2)sc2nc(-c4ccc(N)cc4)cn23)ccn1

1: 48.4; 2: 59.7

Give me growth for each of these compounds, listed below.
1. O=C(CCCCC(=O)Oc1c(Cl)cc(Cl)cc1[N+](=O)[O-])Oc1c(Cl)cc(Cl)cc1[N+](=O)[O-]
2. O=C(CCl)Oc1ccc(OC(=O)CCl)cc1
3. C/C=C/CSC(C)(C)C(=O)NC

104
91.3
117

====

Would you mind telling me the reported growth of each entry?
System: SK-MEL-2 melanoma
Test: NCI-60 one-dose screen, 48 h (100 = growth as untreated, 0 = no growth, -100 = all killed)
Conditions: 10 µM
The panel holds about 83,000 compounds, 20% with a hit somewhere; the sample as a whole holds those more often. Active and inactive are the calls of the source. The calls were made as follows: active = growth percent below 10; inactive = the rest.

O=C(Nc1cc([N+](=O)[O-])c2[nH]c(=O)c3ccccc3c2c1)C(F)(F)F
106% (inactive)
CCN(CC)CC(=O)N(CC)c1ccc(C)c(Cl)c1
99.5% (inactive)
Oc1ccc(/C=N/N=C2c3ccccc3-c3ccccc32)c(O)c1
80.9% (inactive)

Give me growth for each of these compounds, listed below.
1. COc1cc2cc(Oc3ccc(NC(=O)Nc4ccc(Cl)c(C(F)(F)F)c4)cc3)c(C)nc2cc1OC
2. C=CCSC(CC)(CC)C(=O)NC

-49.8% (active)
109% (inactive)

Give me growth for each of these compounds, listed below.
1. O=C1c2ccccc2C(=O)c2c1ccc1c(=O)n(-c3ccccc3C(F)(F)F)nnc21
2. COc1ccc(Cl)cc1Nc1nc(C(F)(F)F)ccc1C(=O)N/N=C/c1cc(OC)c(OC)c(OC)c1

["56.5% (inactive)", "9.11% (active)"]

Give me growth for each of these compounds, listed below.
1. Cn1cnc([N+](=O)[O-])c1/C=C1\Oc2ccc(Br)cc2C1=O
2. CCOC(=O)c1cocc1C(=O)O
3. COC1=CC(=O)OC(c2ccc(OC)cc2)C1 (centres undefined)
4. c1ccc2c(c1)Cc1ccccc1N2CCN1CCCCC1
5. Cc1cc(SC#N)cc(C(C)(C)C)c1O
6. CC[C@@H]1NC(=O)[C@H]([C@H](O)[C@H](C)C/C=C/c2ccc(CN3C(=O)CCCC3=O)cc2)N(C)C(=O)[C@H](C(C)C)N(C)C(=O)[C@H](CC(C)C)N(C)C(=O)[C@H](CC(C)C)N(C)C(=O)[C@@H](C)NC(=O)[C@H](C)NC(=O)[C@H](CC(C)C)N(C)C(=O)[C@H](C(C)C)NC(=O)[C@H](CC(C)C)N(C)C(=O)CN(C)C1=O
7. COc1ccc(-c2cc(-c3ccccc3)nc(SCCCC(=O)NO)n2)cc1
8. COc1ccc(-c2cc(-c3ccc(Cl)cc3)nc(SCCCCCCC(=O)NO)n2)cc1OC

["83.1% (inactive)", "105% (inactive)", "98.9% (inactive)", "97% (inactive)", "82.2% (inactive)", "38.2% (inactive)", "-7.04% (active)", "89.3% (inactive)"]
